System: field corn (Zea mays L., var. Dekalb 535, CORN)
Assay: Post-emerge test, crop safety
Assay type: in vivo
Settings: post-emerge, 63 g ai/ha, crop damage rating 0-100 at 14 days after application
Post-emerge Herbicidal Activity CORN vs 20: less than gives Condition met; not less than gives Condition not met.

Cc1c(Cl)cc(F)c(-n2c(=O)cc(C(F)(F)F)n(C)c2=O)c1NC(=O)OCc1ccc([N+](=O)[O-])cc1 = Condition not met
Cc1c(Cl)cc(F)c(-n2c(=O)cc(C(F)(F)F)n(C)c2=O)c1NC(=O)SCc1ccccc1 = Condition met
COc1c(Cl)cc(F)c(-n2ncc(C(F)(F)F)c(C)c2=O)c1NC(=O)c1ccc2ccccc2c1 = Condition not met
COc1c(Cl)cc(F)c(N2C(=O)c3ccccc3C2=O)c1NC(=O)c1ccc(F)cc1F = Condition met
O=C(Nc1cc(Cl)ccc1N1C(=O)C2CCCCN2C1=O)c1ccc2ccccc2c1 (centres unmarked) = Condition met
Cc1c(Cl)cc(F)c(-n2c(=O)cc(C(F)(F)F)n(C)c2=O)c1NC(=O)OCc1ccco1 = Condition not met
Cc1cccc(COC(=O)Nc2c(C)c(Cl)cc(F)c2-n2c(=O)cc(C(F)(F)F)n(C)c2=O)c1 = Condition not met

Turning now to a further compound:
Exam item: API: query returns whether the compound falls strictly under 20 in Post-emerge Herbicidal Activity CORN. Query: "Cc1nn(-c2c(Cl)cc(Cl)cc2NC(=O)c2ccc(F)cc2F)c(=O)n1C(F)F"
Marked response: Condition met

---

The molecules listed here are annotated with their Post-emerge Herbicidal Activity CHEAL.
Test system: lambsquarters (Chenopodium album, CHEAL)
Test: Post-emerge test, greenhouse herbicide activity screening
Type: in vivo
Conditions: 63 g ai/ha; phytotoxicity rating 0-100 (0 no damage, 100 complete death), 14 days after application
// no unit string in output, number only

Cn1c(C(F)(F)F)cc(=O)n(-c2c(F)cc(Cl)c(OC3CCCC3)c2N)c1=O [Compound 1-21] = 75

So, C#CCOc1c(Cl)cc(F)c(-n2c(=O)cc(C(F)(F)F)n(C)c2=O)c1N [Compound 1-19] ? Its Post-emerge Herbicidal Activity CHEAL was 30

So, COc1c(Cl)cc(F)c(-n2c(=O)c([N+](=O)[O-])c(C(F)(F)F)n(C)c2=O)c1[N+](=O)[O-] [Compound 1-9] ? Its Post-emerge Herbicidal Activity CHEAL was 100

So, Cn1c(C(F)(F)F)cc(=O)n(-c2c(N)cc(OC(F)F)cc2F)c1=O [Compound 1-51] ? Its Post-emerge Herbicidal Activity CHEAL was 30

So, C=Cc1ccc(C(=O)Nc2c(OC)c(Cl)cc(F)c2-n2c(=O)cc(C(F)(F)F)n(C)c2=O)cc1 [2-31] ? Its Post-emerge Herbicidal Activity CHEAL was 80

---

System: sicklepod (Cassia obtusifolia, CASOB)
Test: Post-emerge test, greenhouse herbicide activity screening
Format: in vivo
Conditions: 63 g ai/ha; phytotoxicity rating 0-100 (0 no damage, 100 complete death), 14 days after application
The compounds listed here are annotated with their Post-emerge Herbicidal Activity CASOB.
// no unit string in output, number only

These solved cases illustrate the format of a correct answer.
COc1c(Cl)cc(F)c(-n2c(=O)cc(C(F)(F)F)n(C)c2=O)c1NC(C)=O = 50
CCOC(=O)C(C)Nc1cc(Cl)cc(F)c1-n1c(=O)cc(C(F)(F)F)n(C)c1=O (stereo not shown) = 90
CCOC(=O)CC(=O)Nc1c(OC(=O)CC(=O)OCC)c(Cl)cc(F)c1-n1c(=O)cc(C(F)(F)F)n(C)c1=O = 10

So, "COc1c(Cl)cc(F)c(-n2c(=O)cc(C(F)(F)F)n(C)c2=O)c1NC(=O)C(C)(C)C" ? Its Post-emerge Herbicidal Activity CASOB was 0

---

The compounds listed here are annotated with their Pre-emerge Herbicidal Activity DIGSA.
System: large crabgrass (Digitaria sanguinalis, DIGSA)
Test: Pre-emerge test, greenhouse herbicide activity screening
Format: in vivo
Conditions: pre-emerge, rate 250 g ai/ha, phytotoxicity rating 0-100 at 14 days after application
// no unit string in output, number only

Considering Cc1cccc(COC(=O)Nc2c(C)c(Cl)cc(F)c2-n2c(=O)cc(C(F)(F)F)n(C)c2=O)c1 [4-68] , its Pre-emerge Herbicidal Activity DIGSA with large crabgrass (Digitaria sanguinalis, DIGSA) was recorded as 100

Considering COc1c(Cl)cc(F)c(N2C(=O)C3=C(CCCC3)C2=O)c1N [8-7] , its Pre-emerge Herbicidal Activity DIGSA with large crabgrass (Digitaria sanguinalis, DIGSA) was recorded as 80

Considering Cc1c(Cl)cc(F)c(-n2c(=O)cc(C(F)(F)F)n(C)c2=O)c1NC(=O)OCc1ccc([N+](=O)[O-])cc1 [4-64] , its Pre-emerge Herbicidal Activity DIGSA with large crabgrass (Digitaria sanguinalis, DIGSA) was recorded as 100

Considering COc1c(Cl)cc(F)c(-n2nc(C)n(C(F)F)c2=O)c1NC(=O)c1ccc(F)cc1F [Compound 6-14] , its Pre-emerge Herbicidal Activity DIGSA with large crabgrass (Digitaria sanguinalis, DIGSA) was recorded as 100

---

Test system: sicklepod (Cassia obtusifolia, CASOB)
Test: Pre-emerge test, greenhouse herbicide activity screening
Type: in vivo
Settings: 250 g ai/ha; rating scale 0-100, 14 days after application
The molecules listed here are annotated with their Pre-emerge herbicidal activity, phytotoxicity rating CASOB.
// no unit string in output, number only

So, Nc1c(O)c(Cl)cc(F)c1N1C(=O)C2CCCCN2C1=S (single isomer, unassigned) [12-2] ? Its Pre-emerge herbicidal activity, phytotoxicity rating CASOB was 100

So, C=COC(=O)C(C)(Cl)Cc1c(OC)c(Cl)cc(F)c1-n1c(=O)cc(C(F)(F)F)n(C)c1=O (centres unmarked) [14-42] ? Its Pre-emerge herbicidal activity, phytotoxicity rating CASOB was 0

So, CCCCOC(=O)C(Cl)Cc1c(OC)c(Cl)cc(F)c1-n1c(=O)cc(C(F)(F)F)n(C)c1=O (single isomer, unassigned) [14-9] ? Its Pre-emerge herbicidal activity, phytotoxicity rating CASOB was 0

---

Tested on: velvetleaf (Abutilon theophrasti, ABUTH)
Test: Post-emerge test, greenhouse herbicide activity screening
Format: in vivo
Conditions: post-emerge, 63 g ai/ha, phytotoxicity rating 0-100 at 14 days after application
OBSERVED PROPERTY: Post-emerge Herbicidal Activity ABUTH
// no unit string in output, number only

COc1c(Cl)cc(F)c(N2C(=O)c3ccccc3C2=O)c1NC(=O)c1ccc(F)cc1F [13-4] = 100
COc1c(Cl)cc(F)c(N2C(=O)C3=C(CCCC3)C2=O)c1N [8-7] = 95
Cc1c(Cl)cc(F)c(-n2c(=O)cc(C(F)(F)F)n(C)c2=O)c1NC(=O)OCc1ccco1 [4-70] = 100
Cc1ccc(COC(=O)Nc2c(C)c(Cl)cc(F)c2-n2c(=O)cc(C(F)(F)F)n(C)c2=O)cc1 [4-60] = 100
COc1c(Cl)cc(F)c(-n2nnn(CCCF)c2=O)c1NC(=O)c1ccc2ccccc2c1 [Compound 5-26] = 100

So, Cc1c(Cl)cc(F)c(-n2c(=O)cc(C(F)(F)F)n(C)c2=O)c1NC(=O)OCc1ccc([N+](=O)[O-])cc1 [4-64] ? Its Post-emerge Herbicidal Activity ABUTH was 100

So, COc1c(Cl)cc(F)c(-n2ncc(C(F)(F)F)cc2=O)c1NC(=O)c1ccc2ccccc2c1 [Compound 11-6] ? Its Post-emerge Herbicidal Activity ABUTH was 100

So, Nc1c(OC2CCCC2)c(Cl)cc(F)c1N1C(=O)C2=C(CCCC2)C1=O [Compound 8-5] ? Its Post-emerge Herbicidal Activity ABUTH was 70

So, COc1ccccc1COC(=O)Nc1c(C)c(Cl)cc(F)c1-n1c(=O)cc(C(F)(F)F)n(C)c1=O [4-58] ? Its Post-emerge Herbicidal Activity ABUTH was 100

So, COc1c(Cl)cc(F)c(N2C(=O)C3CCCCN3C2=S)c1NC(=O)c1ccc2ccccc2c1 (stereo not shown) [12-5] ? Its Post-emerge Herbicidal Activity ABUTH was 100

---

Tested on: lambsquarters (Chenopodium album, CHEAL)
Experiment: Pre-emerge test, greenhouse herbicide activity screening
Assay type: in vivo
Settings: pre-emerge, rate 63 g ai/ha, phytotoxicity rating 0-100 at 14 days after application
OBSERVED PROPERTY: Pre-emerge Herbicidal Activity CHEAL
// no unit string in output, number only

Nc1c(O)c(Cl)cc(F)c1N1C(=O)C2CCCCN2C1=S (single isomer, unassigned) = 100
COc1ccccc1COC(=O)Nc1c(C)c(Cl)cc(F)c1-n1c(=O)cc(C(F)(F)F)n(C)c1=O = 100
Cc1cccc(COC(=O)Nc2c(C)c(Cl)cc(F)c2-n2c(=O)cc(C(F)(F)F)n(C)c2=O)c1 = 100
O=C(Nc1cc(Cl)ccc1-n1c(=O)n2n(c1=S)CCCC2)c1ccc2ccccc2c1 = 80
Cc1nn(-c2c(F)cc(Cl)cc2NC(=O)c2ccc(F)cc2F)c(=O)n1C(F)F = 30

So, "Cc1c(Cl)cc(F)c(-n2c(=O)cc(C(F)(F)F)n(C)c2=O)c1NC(=O)OCc1cccc([N+](=O)[O-])c1" ? Its Pre-emerge Herbicidal Activity CHEAL was 100

So, "Cc1c(Cl)cc(F)c(-n2c(=O)cc(C(F)(F)F)n(C)c2=O)c1NC(=O)SCc1ccccc1" ? Its Pre-emerge Herbicidal Activity CHEAL was 100

So, "CC(C)Oc1c(Cl)cc(F)c(N2C(=O)C3=C(CCCC3)C2=O)c1NC(=O)c1ccc(F)cc1F" ? Its Pre-emerge Herbicidal Activity CHEAL was 70
